Target: Rap guanine nucleotide exchange factor 3 (Homo sapiens) (UniProt O95398)
Assay: Counterscreen qHTS for agonist of cAMP-regulated guanine nucleotide exchange factor 3 (EPAC1) (AID 1645889); note: % of control where 0% means no effect; nearly all actives have a fitted effect of over 40% in size
Settings: EPAC1 Rap1B-BODIPY-GDP exchange, fluorescence; series mostly up to 154 µM
Source text: Assay Provider (PI): Xiaodong Cheng Ph.D. The University of Texas Medical Branch, […], TX MLPCN Grant: NS066510 In multi-cellular eukaryotic organisms, the effects of cAMP are transduced by two ubiquitously-expressed intracellular cAMP receptors, the classic protein kinase A/cAMP-dependent protein kinase (PKA/cAPK) and the more recently discovered exchange protein directly activated by cAMP/cAMP-regulated guanine nucleotide exchange factor (EPAC/cAMP-GEF). […]
Results filed as inconclusive are left out. Activity calls are given as the source filed them. Calls come from the whole dose curve; as a rule, active = well fitted activation curve with a large enough effect; inconclusive = small, poorly fitted or top-dose-only effect, or another doubt; inactive = no such curve, though single readings can be large or run the other way.
readout.type: activation

Completed entries (count: 5):
CCC1(c2ccccc2)SCC(c2ccccc2)=NC1=O (stereo unspecified)    inactive
COc1ccc(N=C2SC(C(=O)Nc3ccc(C(=O)O)cc3)CC(=O)N2Cc2cccs2)cc1 (stereo unspecified)    7.24% [at 30.8 µM] (inactive)
N#CC1=C(N)Oc2cc(N)ccc2C1c1ccc(Cl)cc1 (stereo unspecified)    inactive
Cc1ccc(C(=O)NCCCNC(=O)c2ccc(Cl)cc2)cn1    inactive
CC(C)c1nc2cc(Cl)ccc2n(Cc2ccccc2)c1=O    inactive

State the recorded activation for every item in the following list.
1. Cc1cccc(C)c1NC(=O)CN1C(=O)S/C(=C\c2cccn2-c2cccc(C(=O)O)c2)C1=O
2. O=C(c1ccco1)N(CCC(c1ccccc1)c1ccco1)Cc1ccccc1 (stereo unspecified)
3. COc1ccc(S(=O)(=O)Nc2ncccc2C)c2ccccc12
4. O=C(O)c1ccc(N/N=C/c2cccc(C(F)(F)F)c2)cc1

Result block:
["inactive", "15.8% [at 30.8 µM] (inactive)", "inactive", "inactive"]

State the recorded activation for every item in the following list.
1. Cc1c(C(=O)N2CCCC2)oc2ccc(Br)cc12
2. O=CN(c1ccccc1)c1ccc2ccccc2c1

Result block:
inactive
4.55% [at 30.8 µM] (inactive)

----------
Target: Phospholipid hydroperoxide glutathione peroxidase GPX4 (Homo sapiens) (UniProt P36969)
Sequence (P36969 whole entry, looked up): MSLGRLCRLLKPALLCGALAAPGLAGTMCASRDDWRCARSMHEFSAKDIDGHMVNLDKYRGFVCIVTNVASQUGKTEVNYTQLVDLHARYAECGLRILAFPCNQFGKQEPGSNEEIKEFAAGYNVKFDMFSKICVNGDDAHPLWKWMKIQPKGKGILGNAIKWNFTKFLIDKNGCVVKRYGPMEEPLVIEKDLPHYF
Assay: Primary qHTS Assay for Inhibitors of Recombinant Selenoprotein Glutathione Peroxidase 4 (GPX4) (AID 1845192); note: nearly all actives have a fitted effect of over 65% in size
Settings: recombinant GPX4, GR-coupled NADPH fluorescence, 15 min; series mostly up to 50 µM
Records with an inconclusive call do not appear. The source made the active and inactive calls. Calls follow the shape of the dose curve; as a rule, active = well fitted inhibition curve with a large enough effect; inconclusive = small, poorly fitted or top-dose-only effect; inactive = flat fitted curve, though single readings scatter.
Classes to choose from: class 1 (active), class 0 (inactive)

Worked examples, 5 compounds total:
N[C@@H](C(=O)N[C@@H]1C(=O)N2C(C(=O)O)=C(Cl)CC[C@H]12)c1ccccc1    class 0
Cc1ncc([N+](=O)[O-])n1CCOC(=O)c1ccccc1    class 0
CCc1cc2c(cc1CC)CC(NC[C@H](O)c1ccc(O)c3[nH]c(=O)ccc13)C2    class 1
CC(C)OC(=O)CCC/C=C\C[C@@H]1[C@@H](/C=C/[C@@H](O)COc2cccc(C(F)(F)F)c2)[C@H](O)C[C@@H]1O    class 0
CCCN1C[C@@H](NS(=O)(=O)N(CC)CC)C[C@@H]2Cc3c(O)cccc3C[C@H]21    class 0

Query block: Hello, I am checking results. What call was entered for `CCCCCCCCCCCCOC(=O)CS(=O)(=O)O` ?
Result block: class 1

Query block: Hello, I am checking results. What call was entered for CC(OC(=O)OC1CCCCC1)OC(=O)C1=C(CSc2nnnn2CCN(C)C)CS[C@@H]2[C@H](NC(=O)Cc3csc(N)n3)C(=O)N12 (some centres undefined) ?
Result block: class 1

Query block: Hello, I am checking results. What call was entered for `COc1ccc(CC(C)(C)NC[C@H](O)c2cc(O)cc3c2OCC(=O)N3)cc1` ?
Result block: class 0

Query block: Hello, I am checking results. What call was entered for CN1C2CC[C@@H]1CC(OC(=O)[C@H](CO)c1ccccc1)C2 (some centres undefined) ?
Result block: class 0

Query block: Hello, I am checking results. What call was entered for `CO[C@H]1C[C@@H]2CC[C@@H](C)[C@@](O)(O2)C(=O)C(=O)N2CCCC[C@H]2C(=O)O[C@H]([C@H](C)C[C@@H]2CC[C@@H](OCCO)[C@H](OC)C2)CC(=O)[C@H](C)/C=C(/C)[C@@H](O)[C@@H](OC)C(=O)[C@H](C)C[C@H](C)\C=C/C=C\C=C/1C` ?
Result block: class 1

Query block: Hello, I am checking results. What call was entered for Cc1cc(CC(C)C[Si](C)(O[Si](C)(C)C)O[Si](C)(C)C)c(O)c(-n2nc3ccccc3n2)c1 (centres undefined) ?
Result block: class 0

Query block: Hello, I am checking results. What call was entered for O=C(O)[C@H]1OC(O)[C@H](O)[C@@H](O)[C@@H]1O (some centres undefined) ?
Result block: class 0

Query block: Hello, I am checking results. What call was entered for `CO[C@@H]1[C@@H](O[C@@H]2O[C@H](C)[C@@H](O[C@H]3C[C@@](C)(O)[C@H](O)[C@H](C)O3)[C@H](N(C)C)[C@H]2O)[C@@H](CC=O)C[C@@H](C)[C@@H](O[C@H]2CC[C@H](N(C)C)[C@@H](C)O2)/C=C/C=C/C[C@H](C)OC(=O)C[C@H]1O` ?
Result block: class 0

Query block: Hello, I am checking results. What call was entered for `CC(C)C[C@H](NC(=O)[C@@H](Cc1c[nH]c2ccccc12)NC(=O)[C@H](Cc1ccc(O)cc1)NC(=O)[C@H](CO)NC(=O)[C@H](Cc1c[nH]c2ccccc12)NC(=O)[C@H](Cc1cnc[nH]1)NC(=O)[C@@H]1CCC(=O)N1)C(=O)N[C@@H](CCCN=C(N)N)C(=O)N1CCC[C@H]1C(=O)NCC(N)=O` ?
Result block: class 0
